Experiment: Drug levels in organs and serum of mice after a single intraperitoneal dose
Test Context: male, BALB/c, mouse, liver, ip, 500 μg
Measured Attribute: concentration at 28 day (ng/g)

>  <Smiles Repr>
O=C1Nc2ccc(Cl)cc2[C@@](C#CC2CC2)(C(F)(F)F)O1

>  <Measured Attribute>
concentration at 28 day

>  <Readout Number>
1020

$$$$

====

Experiment: Serum pharmacokinetics after a single intraperitoneal dose in mice
Test Context: male, BALB/c, mouse, serum, ip, 500 ug, T1/2 (elimination half-life), NP ART, PLGA NPs 500 μg IP, mice

>  <Smiles Repr>
O=C1Nc2ccc(Cl)cc2[C@@](C#CC2CC2)(C(F)(F)F)O1

>  <half-life>
35.5 h

$$$$

====

Experiment: Serum pharmacokinetics after a single intraperitoneal dose in mice
Test Context: male, BALB/c, mouse, serum, ip, 500 ug, MRT (mean residence time within the serum), Free ART, free drugs 500 μg IP, mice

>  <Molecule>
O=C1Nc2ccc(Cl)cc2[C@@](C#CC2CC2)(C(F)(F)F)O1 [EFV, efavirenz]

>  <MRT (h)>
13.7

$$$$

====

Experiment: Serum pharmacokinetics after a single intraperitoneal dose in mice
Test Context: male, BALB/c, mouse, serum, ip, 500 ug, MRT (mean residence time within the serum), NP ART, PLGA NPs 500 μg IP, mice
Measured Attribute: MRT (days)

>  <Compound>
O=C1Nc2ccc(Cl)cc2[C@@](C#CC2CC2)(C(F)(F)F)O1 [EFV, efavirenz]

>  <Readout Number>
10.3

$$$$

====

Experiment: in vivo
Test Context: male, BALB/c, mouse, in vivo, ip, 500 ug, MRT (mean residence time within the serum), NP ART

>  <Smiles Repr>
Cc1cccc(C)c1OCC(=O)N[C@@H](Cc1ccccc1)[C@@H](O)C[C@H](Cc1ccccc1)NC(=O)[C@H](C(C)C)N1CCCNC1=O

>  <MRT / days>
229

$$$$
>  <Smiles Repr>
CC(C)c1nc(CN(C)C(=O)N[C@H](C(=O)N[C@@H](Cc2ccccc2)C[C@H](O)[C@H](Cc2ccccc2)NC(=O)OCc2cncs2)C(C)C)cs1

>  <MRT / days>
32.3

$$$$

====

Experiment: Serum pharmacokinetics after a single intraperitoneal dose in mice
Test Context: male, BALB/c, mouse, serum, ip, 500 ug, T1/2 (elimination half-life), Free ART, free drugs 500 μg IP, mice

>  <Smiles Repr>
O=C1Nc2ccc(Cl)cc2[C@@](C#CC2CC2)(C(F)(F)F)O1

>  <half-life>
11.8 h

$$$$

====

Experiment: in vivo
Test Context: male, BALB/c, mouse, in vivo, ip, 500 ug, Elimination half-life, drug given as PLGA nanoparticles, averaging
Items are presented alongside their recorded half-life.
Measured Attribute: half-life

>  <Molecule>
CC(C)c1nc(CN(C)C(=O)N[C@H](C(=O)N[C@@H](Cc2ccccc2)C[C@H](O)[C@H](Cc2ccccc2)NC(=O)OCc2cncs2)C(C)C)cs1 [RTV, ritonavir]

>  <Result>
> 70 days

$$$$
>  <Molecule>
Cc1cccc(C)c1OCC(=O)N[C@@H](Cc1ccccc1)[C@@H](O)C[C@H](Cc1ccccc1)NC(=O)[C@H](C(C)C)N1CCCNC1=O [LPV, lopinavir]

>  <Result>
> 70 days

$$$$

====

Items are presented alongside their recorded half-life.
Experiment: in vivo
Test Context: male, BALB/c, mouse, in vivo, ip, 500 ug, T1/2 (elimination half-life), Free ART

>  <Smiles Repr>
Cc1cccc(C)c1OCC(=O)N[C@@H](Cc1ccccc1)[C@@H](O)C[C@H](Cc1ccccc1)NC(=O)[C@H](C(C)C)N1CCCNC1=O

>  <half-life [h]>
15.1

$$$$
>  <Smiles Repr>
CC(C)c1nc(CN(C)C(=O)N[C@H](C(=O)N[C@@H](Cc2ccccc2)C[C@H](O)[C@H](Cc2ccccc2)NC(=O)OCc2cncs2)C(C)C)cs1

>  <half-life [h]>
9.6

$$$$

The measurements presented in this section are drawn from patent US8846096B2.
